B1: tRNA (parent)
chain: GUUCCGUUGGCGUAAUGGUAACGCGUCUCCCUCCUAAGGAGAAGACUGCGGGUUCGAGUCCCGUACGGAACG

- Variants of: B1
- Test summary: yeast fitness relative to wild type (ratio to wild type); higher = fitter; tRNA-Arg(CCU), competitive growth, 37 C, YPD
This sample holds only a part of the variants without activity.
Readout type: yeast fitness

* C5G C55A C62U | 0.546
* G6A A20G C31G C46U G67A | ≤ 0.5
* C5U C22U C27U A42G C55A C60A | ≤ 0.5
* C29U U35C | 0.95
* U16A C24G C46U G50C C55U A57U C62G A70U | ≤ 0.5
* G41A A43G | 0.81
* U19A C22G C34U A42G A43G G51A A70U | ≤ 0.5
* U13G U32C C33U C62U A65G | ≤ 0.5
* A37C A57U U59C | ≤ 0.5
* U3C G6C A14U G25A G38A U47A C60G | 0.558
* U8G G10C A20G U59C G67A | ≤ 0.5
* C4A U47A A70G | 0.536
* U7A A15U C30G A42C U59A C60U | ≤ 0.5
* G9A C11G U19C G67A | ≤ 0.5
* G6A C11A C46G | ≤ 0.5
* U54A C62G | 0.637
* U13A A45G G58C A69U A70U | 0.603
* A21C C27U U47A | 0.545
* G10A A45C G50C G51C C55U G68A A70C | ≤ 0.5
* C46G U59C G68C | ≤ 0.5
* C31U C46A | 1.01
* C4A A20U A43U | ≤ 0.5
* A15U C22G C27U A36C G39C G48C G63U A70U | ≤ 0.5
* U2C G25A A42U | 0.561
* C4A C11U C29G C34A G39C | ≤ 0.5
* U16G A65U | 0.876
* U2C C31A G38C G50A | 0.604
* C11U U54C A57G | 0.553
* C31U C34G G50A | ≤ 0.5
* A15C A20C A21U C30U A40U | ≤ 0.5
* G18A C24A C31A | ≤ 0.5
* G10C C55U G56C | ≤ 0.5
* G12A A15U C24U G44C G52C A69U | ≤ 0.5
* C24U A45C G67A A70U | ≤ 0.5
* C11A A15G C22G C61U G68A | ≤ 0.5
* C27G C60A | ≤ 0.5
* C31A A43U G68U | 0.72
* C5G G9C G67A | ≤ 0.5
* C60G C66U | 0.599
* C11G A20U C30G C66U | ≤ 0.5
* C5G U35C C66U | 0.546
* G10A G23C A45G A65U | ≤ 0.5
* C5A C22A A40G C60A | ≤ 0.5
* C5G C22G C55A A65U | 0.63
* C5U U64A G67U | ≤ 0.5
* C49U G52A | 0.748

Where do these numbers come from? They come from the RNAGym collection of RNA variant scans (doi:10.1126/science.aae0568).
